test system: PPARg:RXRa 90nM:30nM, anti-RXR (NR concentration 90 nM, RXRa partner concentration 30 nM); test: PBM binding z-score (relative to random genomic background probes); higher = stronger binding; sequences stand for … in GC…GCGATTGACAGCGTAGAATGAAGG

sequence_chain: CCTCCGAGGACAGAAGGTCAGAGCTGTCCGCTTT
tested_target: PPARg:RXRa 90nM:30nM, anti-RXR (NR concentration 90 nM, RXRa partner concentration 30 nM)
PBM binding z-score: 0.274
--
sequence_chain: TCATTTAGGTAAATGCTAGGTGAAAGTCCGATCT
tested_target: PPARg:RXRa 90nM:30nM, anti-RXR (NR concentration 90 nM, RXRa partner concentration 30 nM)
PBM binding z-score: 2.65
--
sequence_chain: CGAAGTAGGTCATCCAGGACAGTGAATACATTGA
tested_target: PPARg:RXRa 90nM:30nM, anti-RXR (NR concentration 90 nM, RXRa partner concentration 30 nM)
PBM binding z-score: 6.9
--
sequence_chain: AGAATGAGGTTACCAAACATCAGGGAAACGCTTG
tested_target: PPARg:RXRa 90nM:30nM, anti-RXR (NR concentration 90 nM, RXRa partner concentration 30 nM)
PBM binding z-score: 1.8
--
sequence_chain: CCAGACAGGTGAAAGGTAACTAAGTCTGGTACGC
tested_target: PPARg:RXRa 90nM:30nM, anti-RXR (NR concentration 90 nM, RXRa partner concentration 30 nM)
PBM binding z-score: 6.14
--
sequence_chain: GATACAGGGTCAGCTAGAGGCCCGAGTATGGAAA
tested_target: PPARg:RXRa 90nM:30nM, anti-RXR (NR concentration 90 nM, RXRa partner concentration 30 nM)
PBM binding z-score: 1.92
--
sequence_chain: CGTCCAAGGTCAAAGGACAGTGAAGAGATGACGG
tested_target: PPARg:RXRa 90nM:30nM, anti-RXR (NR concentration 90 nM, RXRa partner concentration 30 nM)
PBM binding z-score: 4.8
--
sequence_chain: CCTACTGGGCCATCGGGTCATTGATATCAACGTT
tested_target: PPARg:RXRa 90nM:30nM, anti-RXR (NR concentration 90 nM, RXRa partner concentration 30 nM)
PBM binding z-score: 3.22
--
sequence_chain: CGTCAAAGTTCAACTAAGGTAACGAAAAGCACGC
tested_target: PPARg:RXRa 90nM:30nM, anti-RXR (NR concentration 90 nM, RXRa partner concentration 30 nM)
PBM binding z-score: 4.48
--
sequence_chain: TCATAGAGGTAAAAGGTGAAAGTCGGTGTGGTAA
tested_target: PPARg:RXRa 90nM:30nM, anti-RXR (NR concentration 90 nM, RXRa partner concentration 30 nM)
PBM binding z-score: 7.33
--
sequence_chain: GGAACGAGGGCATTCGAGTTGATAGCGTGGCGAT
tested_target: PPARg:RXRa 90nM:30nM, anti-RXR (NR concentration 90 nM, RXRa partner concentration 30 nM)
PBM binding z-score: 0.214
--
sequence_chain: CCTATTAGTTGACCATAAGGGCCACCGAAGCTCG
tested_target: PPARg:RXRa 90nM:30nM, anti-RXR (NR concentration 90 nM, RXRa partner concentration 30 nM)
PBM binding z-score: 0.304
--
sequence_chain: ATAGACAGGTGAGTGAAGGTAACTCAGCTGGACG
tested_target: PPARg:RXRa 90nM:30nM, anti-RXR (NR concentration 90 nM, RXRa partner concentration 30 nM)
PBM binding z-score: 0.444
--
sequence_chain: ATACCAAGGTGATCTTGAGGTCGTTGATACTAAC
tested_target: PPARg:RXRa 90nM:30nM, anti-RXR (NR concentration 90 nM, RXRa partner concentration 30 nM)
PBM binding z-score: 0.624
--
sequence_chain: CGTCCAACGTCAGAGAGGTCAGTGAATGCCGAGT
tested_target: PPARg:RXRa 90nM:30nM, anti-RXR (NR concentration 90 nM, RXRa partner concentration 30 nM)
PBM binding z-score: -0.194
--
sequence_chain: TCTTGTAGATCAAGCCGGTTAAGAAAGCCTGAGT
tested_target: PPARg:RXRa 90nM:30nM, anti-RXR (NR concentration 90 nM, RXRa partner concentration 30 nM)
PBM binding z-score: 1.97
--
sequence_chain: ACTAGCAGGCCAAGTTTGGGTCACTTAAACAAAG
tested_target: PPARg:RXRa 90nM:30nM, anti-RXR (NR concentration 90 nM, RXRa partner concentration 30 nM)
PBM binding z-score: 0.815
--
sequence_chain: ATCTCTAGGTAAAGATAGTTCAGGGAATGCAAAT
tested_target: PPARg:RXRa 90nM:30nM, anti-RXR (NR concentration 90 nM, RXRa partner concentration 30 nM)
PBM binding z-score: 0.317
--
sequence_chain: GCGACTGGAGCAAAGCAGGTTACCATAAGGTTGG
tested_target: PPARg:RXRa 90nM:30nM, anti-RXR (NR concentration 90 nM, RXRa partner concentration 30 nM)
PBM binding z-score: -0.311
--
sequence_chain: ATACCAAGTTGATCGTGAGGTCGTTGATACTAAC
tested_target: PPARg:RXRa 90nM:30nM, anti-RXR (NR concentration 90 nM, RXRa partner concentration 30 nM)
PBM binding z-score: 0.0356
--
sequence_chain: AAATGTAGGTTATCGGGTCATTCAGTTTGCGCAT
tested_target: PPARg:RXRa 90nM:30nM, anti-RXR (NR concentration 90 nM, RXRa partner concentration 30 nM)
PBM binding z-score: 6.15
--
sequence_chain: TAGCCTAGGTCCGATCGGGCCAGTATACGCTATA
tested_target: PPARg:RXRa 90nM:30nM, anti-RXR (NR concentration 90 nM, RXRa partner concentration 30 nM)
PBM binding z-score: -1.31
--
sequence_chain: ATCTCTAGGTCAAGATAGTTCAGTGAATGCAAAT
tested_target: PPARg:RXRa 90nM:30nM, anti-RXR (NR concentration 90 nM, RXRa partner concentration 30 nM)
PBM binding z-score: 3.66
--
sequence_chain: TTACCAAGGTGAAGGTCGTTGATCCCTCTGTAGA
tested_target: PPARg:RXRa 90nM:30nM, anti-RXR (NR concentration 90 nM, RXRa partner concentration 30 nM)
PBM binding z-score: 3.67
--
sequence_chain: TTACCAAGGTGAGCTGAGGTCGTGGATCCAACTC
tested_target: PPARg:RXRa 90nM:30nM, anti-RXR (NR concentration 90 nM, RXRa partner concentration 30 nM)
PBM binding z-score: 0.449
--
sequence_chain: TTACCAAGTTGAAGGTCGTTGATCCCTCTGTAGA
tested_target: PPARg:RXRa 90nM:30nM, anti-RXR (NR concentration 90 nM, RXRa partner concentration 30 nM)
PBM binding z-score: 2.27
--
sequence_chain: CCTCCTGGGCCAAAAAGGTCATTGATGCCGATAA
tested_target: PPARg:RXRa 90nM:30nM, anti-RXR (NR concentration 90 nM, RXRa partner concentration 30 nM)
PBM binding z-score: 1.63
--
sequence_chain: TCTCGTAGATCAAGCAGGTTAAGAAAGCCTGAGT
tested_target: PPARg:RXRa 90nM:30nM, anti-RXR (NR concentration 90 nM, RXRa partner concentration 30 nM)
PBM binding z-score: 1.83
--
sequence_chain: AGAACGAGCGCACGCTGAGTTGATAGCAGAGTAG
tested_target: PPARg:RXRa 90nM:30nM, anti-RXR (NR concentration 90 nM, RXRa partner concentration 30 nM)
PBM binding z-score: -0.45
--
sequence_chain: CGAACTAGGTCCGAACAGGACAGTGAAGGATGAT
tested_target: PPARg:RXRa 90nM:30nM, anti-RXR (NR concentration 90 nM, RXRa partner concentration 30 nM)
PBM binding z-score: -0.784
--
sequence_chain: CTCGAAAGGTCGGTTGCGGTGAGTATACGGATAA
tested_target: PPARg:RXRa 90nM:30nM, anti-RXR (NR concentration 90 nM, RXRa partner concentration 30 nM)
PBM binding z-score: 0.654
--
sequence_chain: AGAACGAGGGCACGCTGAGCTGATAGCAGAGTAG
tested_target: PPARg:RXRa 90nM:30nM, anti-RXR (NR concentration 90 nM, RXRa partner concentration 30 nM)
PBM binding z-score: 0.908
--
sequence_chain: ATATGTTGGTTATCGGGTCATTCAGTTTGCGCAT
tested_target: PPARg:RXRa 90nM:30nM, anti-RXR (NR concentration 90 nM, RXRa partner concentration 30 nM)
PBM binding z-score: 1.65
--
sequence_chain: TTACCCAGGTGAGCTGAGGTCGTTGATCCAACTC
tested_target: PPARg:RXRa 90nM:30nM, anti-RXR (NR concentration 90 nM, RXRa partner concentration 30 nM)
PBM binding z-score: 0.184
--
sequence_chain: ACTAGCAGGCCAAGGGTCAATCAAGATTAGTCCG
tested_target: PPARg:RXRa 90nM:30nM, anti-RXR (NR concentration 90 nM, RXRa partner concentration 30 nM)
PBM binding z-score: 8.3
--
sequence_chain: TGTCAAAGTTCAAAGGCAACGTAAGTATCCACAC
tested_target: PPARg:RXRa 90nM:30nM, anti-RXR (NR concentration 90 nM, RXRa partner concentration 30 nM)
PBM binding z-score: 7.03
--
sequence_chain: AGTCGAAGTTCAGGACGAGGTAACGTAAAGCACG
tested_target: PPARg:RXRa 90nM:30nM, anti-RXR (NR concentration 90 nM, RXRa partner concentration 30 nM)
PBM binding z-score: 0.868
--
sequence_chain: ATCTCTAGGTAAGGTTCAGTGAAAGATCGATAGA
tested_target: PPARg:RXRa 90nM:30nM, anti-RXR (NR concentration 90 nM, RXRa partner concentration 30 nM)
PBM binding z-score: 1.9
--
sequence_chain: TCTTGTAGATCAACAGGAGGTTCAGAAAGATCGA
tested_target: PPARg:RXRa 90nM:30nM, anti-RXR (NR concentration 90 nM, RXRa partner concentration 30 nM)
PBM binding z-score: 2.18
--
sequence_chain: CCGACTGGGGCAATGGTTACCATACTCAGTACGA
tested_target: PPARg:RXRa 90nM:30nM, anti-RXR (NR concentration 90 nM, RXRa partner concentration 30 nM)
PBM binding z-score: 3.63
--
sequence_chain: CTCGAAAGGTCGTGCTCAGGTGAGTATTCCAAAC
tested_target: PPARg:RXRa 90nM:30nM, anti-RXR (NR concentration 90 nM, RXRa partner concentration 30 nM)
PBM binding z-score: 1.86
--
sequence_chain: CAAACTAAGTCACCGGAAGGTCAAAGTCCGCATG
tested_target: PPARg:RXRa 90nM:30nM, anti-RXR (NR concentration 90 nM, RXRa partner concentration 30 nM)
PBM binding z-score: 2.18
--
sequence_chain: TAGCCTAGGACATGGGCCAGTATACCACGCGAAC
tested_target: PPARg:RXRa 90nM:30nM, anti-RXR (NR concentration 90 nM, RXRa partner concentration 30 nM)
PBM binding z-score: -0.49
--
sequence_chain: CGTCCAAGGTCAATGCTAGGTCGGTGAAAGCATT
tested_target: PPARg:RXRa 90nM:30nM, anti-RXR (NR concentration 90 nM, RXRa partner concentration 30 nM)
PBM binding z-score: 2.58
--
sequence_chain: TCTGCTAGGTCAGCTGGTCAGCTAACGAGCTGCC
tested_target: PPARg:RXRa 90nM:30nM, anti-RXR (NR concentration 90 nM, RXRa partner concentration 30 nM)
PBM binding z-score: 1.23
--
sequence_chain: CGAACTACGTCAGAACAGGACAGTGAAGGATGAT
tested_target: PPARg:RXRa 90nM:30nM, anti-RXR (NR concentration 90 nM, RXRa partner concentration 30 nM)
PBM binding z-score: -0.37
--
sequence_chain: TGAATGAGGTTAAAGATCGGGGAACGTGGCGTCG
tested_target: PPARg:RXRa 90nM:30nM, anti-RXR (NR concentration 90 nM, RXRa partner concentration 30 nM)
PBM binding z-score: 5.49
--
sequence_chain: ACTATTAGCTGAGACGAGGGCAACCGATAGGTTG
tested_target: PPARg:RXRa 90nM:30nM, anti-RXR (NR concentration 90 nM, RXRa partner concentration 30 nM)
PBM binding z-score: 0.302
--
sequence_chain: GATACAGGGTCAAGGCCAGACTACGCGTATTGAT
tested_target: PPARg:RXRa 90nM:30nM, anti-RXR (NR concentration 90 nM, RXRa partner concentration 30 nM)
PBM binding z-score: 4.87
--
sequence_chain: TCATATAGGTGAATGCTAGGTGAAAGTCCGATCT
tested_target: PPARg:RXRa 90nM:30nM, anti-RXR (NR concentration 90 nM, RXRa partner concentration 30 nM)
PBM binding z-score: 3.07
--
sequence_chain: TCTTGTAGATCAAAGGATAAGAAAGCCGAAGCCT
tested_target: PPARg:RXRa 90nM:30nM, anti-RXR (NR concentration 90 nM, RXRa partner concentration 30 nM)
PBM binding z-score: 3.38
